# Test system: Mycobacterium tuberculosis
# ASSAY OVERVIEW: Antitubercular activity against Mycobacterium tuberculosis H37Rv ATCC 27294 at 6.25 ug/ml by microplate alamar blue assay
# Format: functional
Returns one of t or f; t when inhibition at 6.25 µg/mL is >= 60%.

>>> qualitative_label("C=C/C(C)=N/NC(=O)c1ccc(F)cc1")
"f"
>>> qualitative_label("C/C(=N\\NC(=O)c1ccc(F)cc1)c1ccco1")
"f"
>>> qualitative_label("O=C(N/N=C/c1c(Cl)cccc1Cl)c1ccc(F)cc1")
"t"
>>> qualitative_label("O=C(N/N=C/c1cccc(F)c1)c1ccc(F)cc1")
"f"
>>> qualitative_label("O=C(N/N=C/c1ccc(Cl)cc1Cl)c1ccc(F)cc1")
"t"
>>> qualitative_label("CN(C)CCCOc1ccc(/C=N/NC(=O)c2ccc(F)cc2)cc1")
"f"
>>> qualitative_label("O=C(N/N=C/c1cc(Cl)cc(Cl)c1O)c1ccc(F)cc1")
"t"
>>> qualitative_label("C/C(=N\\NC(=O)c1ccc(F)cc1)c1ccc(Cl)s1")
"t"
>>> qualitative_label("O=C(N/N=C/c1cccc(Oc2ccccc2)c1)c1ccc(F)cc1")
"t"

----------
# Tested on: Mycobacterium tuberculosis
# ASSAY OVERVIEW: Antitubercular activity against Mycobacterium tuberculosis H37Rv ATCC 27294 at 6.25 ug/ml by microplate alamar blue assay
# Format: functional
TEST READOUT: inhibition at 6.25 µg/mL (%)

>>> reported_measurement("C/C(=N\\NC(=O)c1ccc(F)cc1)c1ccc[nH]1")
66
>>> reported_measurement("C/C(=N\\NC(=O)c1ccc(F)cc1)c1ccncc1")
53
>>> reported_measurement("O=C(N/N=C/c1cc(Cl)cc(Cl)c1)c1ccc(F)cc1")
65
>>> reported_measurement("C/C(=N\\NC(=O)c1ccc(F)cc1)c1cccs1")
50
>>> reported_measurement("C/C(=N\\NC(=O)c1ccc(F)cc1)c1ccc(Br)s1")
59
>>> reported_measurement("CC/C(=N\\NC(=O)c1ccc(F)cc1)c1ccccc1")
53
